Reported MIC by item:
Test system: B. fragilis 6688
Assay: MIC determination, broth microdilution (CLSI)
Assay type: cell-based
Conditions: Bacteroides fragilis, 6688, strain 15; read-out: strain 15 MIC

Below, 4 compounds whose answers are already recorded.
Prompt: // MIC lookup, key: C[C@H]1[C@H](NC(=O)/C(=N\OCCCOc2ccc(C(=N)N)cc2)c2csc(N)n2)C(=O)N1S(=O)(=O)O
Completion: 16 µg/mL

Prompt: I have this compound here, CC1(C)[C@H](NC(=O)/C(=N\OCCOc2cnc(C(=N)N)c(O)c2)c2csc(N)n2)C(=O)N1OS(=O)(=O)O , and I need its recorded MIC.
Completion: 4 µg/mL

Prompt: Could you tell me which MIC is on file for C[C@H]1[C@H](NC(=O)/C(=N\OC(COc2ccc(C(=N)N)cc2)C(=O)O)c2csc(N)n2)C(=O)N1S(=O)(=O)O (mixture of isomers) [Example 26A] ?
Completion: 8 µg/mL

Prompt: Recorded MIC of N=C(N)c1ccc(OCCO/N=C(\C(=O)NC2C(=O)N(OS(=O)(=O)O)C23CCCC3)c2csc(N)n2)cc1 (stereo not drawn) , please.
Completion: 8 µg/mL

---
Prompt: Consider the compound CC1(C)[C@H](NC(=O)/C(=N\OCCOc2ccc(C(=N)N[C@H]3CCNC3)cc2)c2csc(N)n2)C(=O)N1OS(=O)(=O)O and give its measured MIC.
Completion: 16 µg/mL

Prompt: Tell me the measured MIC of CC1(C)[C@H](NC(=O)/C(=N\OCCOc2ccc(C(=N)NCCNC=N)cc2)c2csc(N)n2)C(=O)N1OS(=O)(=O)O , please.
Completion: 4 µg/mL
